biological target: Ba/F3 (EGFR L858R/C797S) (Homo sapiens, UniProt P00533, C797S/L858R, cells depend on it); assay: Cell proliferation inhibitory activity assay, Ba/F3 EGFR L858R/C797S; type: cell-based; conditions: cell proliferation inhibition, 72 hours, luminescence; read-out: Ba/F3 cells overexpressing different EGFR mutations IC50 (nM) L858R/C797S
Sequence (P00533 whole entry C797S/L858R): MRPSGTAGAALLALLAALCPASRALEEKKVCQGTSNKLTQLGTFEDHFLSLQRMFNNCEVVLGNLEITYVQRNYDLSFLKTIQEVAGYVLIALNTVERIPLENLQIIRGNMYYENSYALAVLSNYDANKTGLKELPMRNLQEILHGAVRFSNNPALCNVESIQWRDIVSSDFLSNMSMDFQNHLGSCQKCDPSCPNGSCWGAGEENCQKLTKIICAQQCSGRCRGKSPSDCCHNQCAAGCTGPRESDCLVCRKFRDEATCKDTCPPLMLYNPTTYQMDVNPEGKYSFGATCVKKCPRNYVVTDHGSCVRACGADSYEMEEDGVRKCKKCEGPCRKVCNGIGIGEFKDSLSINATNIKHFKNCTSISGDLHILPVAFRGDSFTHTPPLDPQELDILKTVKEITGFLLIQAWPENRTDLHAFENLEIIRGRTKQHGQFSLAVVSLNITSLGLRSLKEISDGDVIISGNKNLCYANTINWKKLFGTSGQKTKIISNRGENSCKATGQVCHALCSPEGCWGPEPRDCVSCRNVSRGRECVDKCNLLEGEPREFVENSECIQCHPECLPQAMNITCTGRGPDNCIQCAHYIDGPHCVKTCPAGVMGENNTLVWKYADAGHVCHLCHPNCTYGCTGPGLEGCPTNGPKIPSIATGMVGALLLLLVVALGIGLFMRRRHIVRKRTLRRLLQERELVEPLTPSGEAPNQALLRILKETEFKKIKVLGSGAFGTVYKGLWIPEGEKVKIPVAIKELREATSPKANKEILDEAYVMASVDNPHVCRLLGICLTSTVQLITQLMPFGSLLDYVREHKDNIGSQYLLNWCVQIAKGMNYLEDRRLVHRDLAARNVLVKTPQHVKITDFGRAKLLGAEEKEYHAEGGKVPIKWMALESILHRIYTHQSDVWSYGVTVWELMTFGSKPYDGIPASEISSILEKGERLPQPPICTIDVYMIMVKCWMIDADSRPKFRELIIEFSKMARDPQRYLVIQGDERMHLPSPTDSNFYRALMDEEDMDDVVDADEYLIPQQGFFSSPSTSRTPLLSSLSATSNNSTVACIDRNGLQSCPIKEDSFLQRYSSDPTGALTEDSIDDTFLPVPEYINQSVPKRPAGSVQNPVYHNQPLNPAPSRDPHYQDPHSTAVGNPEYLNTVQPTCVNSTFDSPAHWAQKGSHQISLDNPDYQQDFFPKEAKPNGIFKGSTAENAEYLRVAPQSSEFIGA
QUANTITY_NAME: GI50 (nM)

Answered cases to consult:
Cc1cc2cc(n1)-c1cnccc1OCCCCCn1c(nc3ccc(N4CCC5(CC4)CCN(C4COC4)CC5)cc31)NC2=O	4.7
Cc1cc2cc(n1)-c1cnccc1OCCCCCn1c(nc3ccc(N4CCC5(CCN(C)CC5)CC4)cc31)NC2=O	0.23
Cc1cc2cc(n1)-c1cnccc1OCCC[C@@H](C)Cn1c(nc3ccc(N4CCC5(CCN(C)CC5)CC4)cc31)NC2=O	0.44
Cc1cc2cc(n1)-c1cnccc1OCCCC(C)(C)Cn1c(nc3ccc(N4CCC5(CCN(C)CC5)CC4)cc31)NC2=O	11
Cc1cc2cc(n1)-c1cnccc1OCCCCCn1c(nc3ccc(N4CCC5(CCN(CCC(N)=O)CC5)CC4)cc31)NC2=O	3.9

I: Cc1cc2cc(n1)-c1cnccc1OCCCCCn1c(nc3cc(F)c(N4CCC5(CCN(CCF)CC5)CC4)cc31)NC2=O
II: Cc1cc2cc(n1)-c1cnccc1OCCCCCn1c(nc3cc(F)c(N4CCC5(CC4)CCN(C4CC4)CC5)cc31)NC2=O
Short answer wanted: higher GI50, I or II ? Indicate your choice by writing its label.
II

###

biological target: Ba/F3 (EGFR L858R/C797S) (Homo sapiens, UniProt P00533, C797S/L858R, cells depend on it); experiment: Cell proliferation inhibitory activity assay, Ba/F3 EGFR L858R/C797S; type: cell-based; conditions: cell proliferation inhibition, 72 hours, luminescence; read-out: Ba/F3 cells overexpressing different EGFR mutations IC50 (nM) L858R/C797S
QUANTITY_NAME: GI50 (nM)

Answered cases to consult:
Cc1cc2cc(n1)-c1cnc(F)cc1OCCC[C@@H](C)Cn1c(nc3ccc(N4CCC5(CCNCC5)CC4)cc31)NC2=O [Example 9]	3.6
Cc1cc2cc(n1)-c1cnccc1OCCCCCn1c(nc3cc(F)c(N4CCC5(CCN(CC6COC6)CC5)CC4)cc31)NC2=O [Example 62]	3.8
Cc1cc2cc(n1)-c1cnccc1OCCC[C@@H](C)Cn1c(nc3cc(C)c(N4CCC5(CCN(C)CC5)CC4)cc31)NC2=O [Example 11]	1
Cc1cc2cc(n1)-c1cnccc1OCCCCCn1c(nc3cc(C)c(N4CCC5(CCN(CCF)CC5)CC4)cc31)NC2=O [Example 59]	5.7

P: Cc1cc2cc(n1)-c1cnccc1OCCC[C@@H](C)Cn1c(nc3cc(C)c(N4CCC5(CC4)CCN(C4COC4)CC5)cc31)NC2=O [Example 12]
Q: Cc1cc2cc(n1)-c1cnccc1OCCC[C@@H](C)Cn1c(nc3ccc(N4CCC5(CC4)CCN(C4COC4)CC5)cc31)NC2=O [Example 4]
R: Cc1cc2cc(n1)-c1cnccc1OCCCCCn1c(nc3cc(C)c(N4CCC5(CCN(C)CC5)CC4)cc31)NC2=O [Example 13]
Kindly order the items shown according to GI50, from the highest value down. Put the labels in the requested order and write them down.
P, R, Q
(P: 4.4 nM, R: 1.3 nM, Q: 0.8 nM)

###

target: Ba/F3 (EGFR Del19/C797S) (Homo sapiens, UniProt P00533, C797S, cells depend on it, form not given); assay: Cell proliferation inhibitory activity assay, Ba/F3 EGFR Del19/C797S; format: cell-based; conditions: cell proliferation inhibition, 72 hours, luminescence; read-out: Ba/F3 cells overexpressing different EGFR mutations IC50 (nM) Del19/C797S
Sequence (P00533 with tags, fused parts or gaps DEL746-750/C797S, form open): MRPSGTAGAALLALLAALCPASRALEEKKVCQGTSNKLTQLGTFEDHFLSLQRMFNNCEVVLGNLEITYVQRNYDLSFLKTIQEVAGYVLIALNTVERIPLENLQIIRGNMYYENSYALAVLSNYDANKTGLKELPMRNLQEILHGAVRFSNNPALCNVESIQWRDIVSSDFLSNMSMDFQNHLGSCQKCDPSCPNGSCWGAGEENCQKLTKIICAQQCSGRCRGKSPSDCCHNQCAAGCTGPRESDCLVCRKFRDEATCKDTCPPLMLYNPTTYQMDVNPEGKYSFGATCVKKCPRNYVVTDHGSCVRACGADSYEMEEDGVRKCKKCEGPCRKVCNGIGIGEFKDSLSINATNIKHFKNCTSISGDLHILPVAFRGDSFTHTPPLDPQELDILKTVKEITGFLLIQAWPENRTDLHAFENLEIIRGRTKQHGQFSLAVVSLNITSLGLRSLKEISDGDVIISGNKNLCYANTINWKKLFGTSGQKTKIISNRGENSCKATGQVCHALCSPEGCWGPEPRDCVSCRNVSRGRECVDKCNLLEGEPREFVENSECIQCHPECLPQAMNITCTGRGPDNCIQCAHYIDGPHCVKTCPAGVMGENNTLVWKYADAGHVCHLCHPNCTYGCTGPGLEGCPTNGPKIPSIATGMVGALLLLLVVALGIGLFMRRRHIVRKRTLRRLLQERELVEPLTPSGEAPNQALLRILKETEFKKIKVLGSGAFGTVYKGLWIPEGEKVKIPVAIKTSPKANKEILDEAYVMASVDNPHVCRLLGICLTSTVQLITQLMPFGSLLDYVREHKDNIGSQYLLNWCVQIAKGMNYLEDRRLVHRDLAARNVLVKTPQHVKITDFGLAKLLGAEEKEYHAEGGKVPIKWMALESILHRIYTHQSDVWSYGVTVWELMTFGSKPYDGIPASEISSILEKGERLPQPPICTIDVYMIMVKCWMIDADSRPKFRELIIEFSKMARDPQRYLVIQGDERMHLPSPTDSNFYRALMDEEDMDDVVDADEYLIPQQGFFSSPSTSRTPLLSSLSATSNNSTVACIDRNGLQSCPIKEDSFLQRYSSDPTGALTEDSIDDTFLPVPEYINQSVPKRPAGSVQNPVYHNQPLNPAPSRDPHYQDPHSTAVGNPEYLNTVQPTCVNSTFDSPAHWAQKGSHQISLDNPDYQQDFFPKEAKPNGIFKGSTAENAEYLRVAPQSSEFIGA
QUANTITY_NAME: GI50 (nM)

Cc1cc2cc(n1)-c1cnccc1OCCCC(C)(C)Cn1c(nc3ccc(N4CCC5(CCN(C)CC5)CC4)cc31)NC2=O	4.5
Cc1cc2cc(n1)-c1cnccc1OCCCCCn1c(nc3cc(C)c(N4CCC5(CCN(C)CC5)CC4)cc31)NC2=O	0.2
Cc1cc2cc(n1)-c1cnccc1OCCCCCn1c(nc3ccc(N4CCC5(CCN(CCC(N)=O)CC5)CC4)cc31)NC2=O	0.5
Cc1cc2cc(n1)-c1cnccc1OCCCCCn1c(nc3cc(C)c(N4CCC5(CCN(CCF)CC5)CC4)cc31)NC2=O	0.45
Cc1cc2cc(n1)-c1cnccc1OCCCCCn1c(nc3cc(F)c(N4CCC5(CCN(C)CC5)CC4)cc31)NC2=O	0.18

I: COCCN1CCC2(CC1)CCN(c1ccc3nc4n(c3c1)CCCCCOc1ccncc1-c1cc(cc(C)n1)C(=O)N4)CC2
II: Cc1cc2cc(n1)-c1cnccc1OCCC[C@@H](C)Cn1c(nc3cc(F)c(N4CCC5(CCN(C)CC5)CC4)cc31)NC2=O
III: Cc1cc2cc(n1)-c1cnccc1OCCC[C@@H](C)Cn1c(nc3cc(F)c(N4CCC5(CC4)CCN(C4COC4)CC5)cc31)NC2=O
IV: Cc1cc2cc(n1)-c1cnccc1OCCCCCn1c(nc3cc(F)c(N4CCC5(CCN(CC6COC6)CC5)CC4)cc31)NC2=O
V: Cc1cc2cc(n1)-c1cnccc1OCCC[C@@H](C)Cn1c(nc3ccc(N4CCC5(CC4)CCN(C4COC4(C)C)CC5)cc31)NC2=O (stereo partly shown)
Ascending by GI50, please. Put the labels in the requested order and write them down.
I, II, III, IV, V

a: Cc1cc2cc(n1)-c1cnccc1OCCC[C@@H](C)Cn1c(nc3cc(C)c(N4CCC5(CCN(C)CC5)CC4)cc31)NC2=O
b: Cc1cc2cc(n1)-c1cnccc1OCCCCCn1c(nc3ccc(N4CCC5(CC4)CCN(C4CC4)CC5)cc31)NC2=O
c: COCCCN1CCC2(CC1)CCN(c1ccc3nc4n(c3c1)C[C@H](C)CCCOc1cc(F)ncc1-c1cc(cc(C)n1)C(=O)N4)CC2
d: COCCCN1CCC2(CC1)CCN(c1ccc3nc4n(c3c1)C[C@H](C)CCCOc1ccncc1-c1cc(cc(C)n1)C(=O)N4)CC2
e: Cc1cc2cc(n1)-c1cnccc1OCCCCCn1c(nc3ccc(N4CCC5(CCN(C)CC5)CC4)cc31)NC2=O
Kindly order the items shown according to GI50, from the highest value down. Put the labels in the requested order and write them down.
c, b, d, a, e

1: Cc1cc2cc(n1)-c1cnccc1OCCC[C@@H](C)Cn1c(nc3ccc(N4CCC5(CC4)CCN(C4COC4)CC5)cc31)NC2=O
2: Cc1cc2cc(n1)-c1cnccc1OCCCCCn1c(nc3cc(F)c(N4CCC5(CC4)CCN(C4COC4)CC5)cc31)NC2=O
3: Cc1cc2cc(n1)-c1cnccc1OCCCCCn1c(nc3ccc(N4CCC5(CCN(CC(C)(C)F)CC5)CC4)cc31)NC2=O
Kindly order the items shown according to GI50, from the highest value down. Put the labels in the requested order and write them down.
3, 2, 1

###

biological target: Ba/F3 (EGFR L858R/C797S) (Homo sapiens, UniProt P00533, C797S/L858R, cells depend on it); assay: Cell proliferation inhibitory activity assay, Ba/F3 EGFR L858R/C797S; assay type: cell-based; settings: cell proliferation inhibition, 72 hours, luminescence; read-out: Ba/F3 cells overexpressing different EGFR mutations IC50 (nM) L858R/C797S
QUANTITY_NAME: GI50 (nM)

Cc1cc2cc(n1)-c1cnccc1OCCCCCn1c(nc3cc(F)c(N4CCC5(CCN(C)CC5)CC4)cc31)NC2=O	1.8

I: Cc1cc2cc(n1)-c1cnccc1OCCC[C@@H](C)Cn1c(nc3ccc(N4CCC5(CC4)CCN(C4CC4)CC5)cc31)NC2=O
II: COC(C)(C)CC(C)N1CCC2(CCN(c3ccc4nc5n(c4c3)CCCCCOc3ccncc3-c3cc(cc(C)n3)C(=O)N5)CC2)CC1 (stereo not drawn)
Short answer wanted: higher GI50, I or II ? Indicate your choice by writing its label.
II
(II: 31 nM, I: 2.1 nM)

###

system: A431 cell carrying EGFR WT; assay: Cell proliferation inhibitory activity assay, A431; format: cell-based; settings: Homo sapiens, A-431; cell proliferation inhibition, 72 hours, luminescence
QUANTITY_NAME: IC50 (nM)

COC(C)(C)CC(C)N1CCC2(CCN(c3ccc4nc5n(c4c3)CCCCCOc3ccncc3-c3cc(cc(C)n3)C(=O)N5)CC2)CC1 (stereo not shown)	733
Cc1cc2cc(n1)-c1cnc(F)cc1OCCC[C@@H](C)Cn1c(nc3ccc(N4CCC5(CC4)CCN(C4COC4)CC5)cc31)NC2=O	1750
Cc1cc2cc(n1)-c1cnccc1OCCCC(C)(C)Cn1c(nc3ccc(N4CCC5(CCN(C)CC5)CC4)cc31)NC2=O	226
Cc1cc2cc(n1)-c1cnccc1OCCCCCn1c(nc3cc(F)c(N4CCC5(CCN(C)CC5)CC4)cc31)NC2=O	805
Cc1cc2cc(n1)-c1cnccc1OCCCCCn1c(nc3cc(F)c(N4CCC5(CC4)CCN(C4CC4)CC5)cc31)NC2=O	1250
COCCN1CCC2(CC1)CCN(c1ccc3nc4n(c3c1)CCCCCOc1ccncc1-c1cc(cc(C)n1)C(=O)N4)CC2	646
Cc1cc2cc(n1)-c1cnccc1OCCCCCn1c(nc3ccc(N4CCC5(CCN(CCC(N)=O)CC5)CC4)cc31)NC2=O	631
Cc1cc2cc(n1)-c1cnccc1OCCCCCn1c(nc3ccc(N4CCC5(CC4)CCN(C4CC4)CC5)cc31)NC2=O	1210
Cc1cc2cc(n1)-c1cnccc1OCCC[C@@H](C)Cn1c(nc3ccc(N4CCC5(CCN(C)CC5)CC4)cc31)NC2=O	759
Cc1cc2cc(n1)-c1cnccc1OCCC[C@@H](C)Cn1c(nc3cc(C)c(N4CCC5(CC4)CCN(C4COC4)CC5)cc31)NC2=O	1000

I: Cc1cc2cc(n1)-c1cnccc1OCCC[C@@H](C)Cn1c(nc3ccc(N4CCC5(CC4)CCN(C4COC4(C)C)CC5)cc31)NC2=O (stereo partly shown)
II: Cc1cc2cc(n1)-c1cnccc1OCCCCCn1c(nc3cc(F)c(N4CCC5(CC4)CCN(C4COC4)CC5)cc31)NC2=O
# min-compare on IC50 between I and II Indicate your choice by writing its label.
II
